Cited source: patent US11814435B2

Could you please report measured ka (1/Ms) cyBCMA @ 37° C. for the items listed next?
Tested on: cyBCMA
Assay: Kinetics and affinity of cyBCMA/human IgG interactions by SPR (Bio-Rad Proteon XPR36)
Format: binding, cynomolgus
Settings: 37° C.
The answer is to be given in M⁻¹ s⁻¹; state only the numeric part.

*Q* If you can, please state the reported ka (1/Ms) cyBCMA @ 37° C. value of L3.PY/H2.HA: anti-BCMA antibody (antibody, V domains shown) VH: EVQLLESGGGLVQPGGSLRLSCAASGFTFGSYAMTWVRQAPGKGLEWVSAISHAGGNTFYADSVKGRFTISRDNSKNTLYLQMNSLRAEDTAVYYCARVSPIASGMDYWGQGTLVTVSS VL: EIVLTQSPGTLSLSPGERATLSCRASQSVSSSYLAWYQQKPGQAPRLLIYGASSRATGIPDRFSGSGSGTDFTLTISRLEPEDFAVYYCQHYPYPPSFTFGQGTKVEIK .
*A* 1.99e+06

*Q* If you can, please state the reported ka (1/Ms) cyBCMA @ 37° C. value of L3.PY/H2.YQ: anti-BCMA antibody (antibody, V domains shown) VH: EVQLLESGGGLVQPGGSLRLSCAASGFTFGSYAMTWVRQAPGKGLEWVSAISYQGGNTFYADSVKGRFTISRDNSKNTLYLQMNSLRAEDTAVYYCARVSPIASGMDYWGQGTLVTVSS VL: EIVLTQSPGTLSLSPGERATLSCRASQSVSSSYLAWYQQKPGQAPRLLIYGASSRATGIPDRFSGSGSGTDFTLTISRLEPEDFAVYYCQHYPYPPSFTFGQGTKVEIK .
*A* 2.46e+06

*Q* If you can, please state the reported ka (1/Ms) cyBCMA @ 37° C. value of L3.PY/L1.PH/H3.TAQ: anti-BCMA antibody (antibody, V domains shown) VH: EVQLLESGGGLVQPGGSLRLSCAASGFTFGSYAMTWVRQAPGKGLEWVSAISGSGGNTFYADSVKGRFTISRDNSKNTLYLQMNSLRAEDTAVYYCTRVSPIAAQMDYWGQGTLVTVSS VL: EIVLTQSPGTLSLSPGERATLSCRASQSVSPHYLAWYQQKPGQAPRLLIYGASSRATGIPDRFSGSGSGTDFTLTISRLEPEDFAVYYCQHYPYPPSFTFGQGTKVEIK .
*A* 2.51e+06

*Q* If you can, please state the reported ka (1/Ms) cyBCMA @ 37° C. value of L3.PY/L1.AH/H2.HA: anti-BCMA antibody (antibody, V domains shown) VH: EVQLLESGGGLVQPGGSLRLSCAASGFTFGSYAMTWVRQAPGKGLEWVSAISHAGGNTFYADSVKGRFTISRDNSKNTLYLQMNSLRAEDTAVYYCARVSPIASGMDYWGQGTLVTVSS VL: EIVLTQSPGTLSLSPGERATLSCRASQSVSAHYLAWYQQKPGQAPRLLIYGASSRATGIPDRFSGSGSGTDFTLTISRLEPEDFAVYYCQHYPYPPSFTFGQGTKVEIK .
*A* 2.58e+06

*Q* If you can, please state the reported ka (1/Ms) cyBCMA @ 37° C. value of L3.PY/L1.FF/H3.YA: anti-BCMA antibody (antibody, V domains shown) VH: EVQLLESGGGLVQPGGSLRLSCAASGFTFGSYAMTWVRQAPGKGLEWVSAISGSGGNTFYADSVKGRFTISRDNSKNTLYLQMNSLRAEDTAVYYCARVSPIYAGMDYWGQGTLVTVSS VL: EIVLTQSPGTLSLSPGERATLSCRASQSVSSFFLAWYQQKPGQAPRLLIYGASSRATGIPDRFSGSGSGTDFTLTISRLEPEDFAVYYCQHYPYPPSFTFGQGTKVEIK .
*A* 2.46e+06

*Q* If you can, please state the reported ka (1/Ms) cyBCMA @ 37° C. value of L3.PY/H3.YA: anti-BCMA antibody (antibody, V domains shown) VH: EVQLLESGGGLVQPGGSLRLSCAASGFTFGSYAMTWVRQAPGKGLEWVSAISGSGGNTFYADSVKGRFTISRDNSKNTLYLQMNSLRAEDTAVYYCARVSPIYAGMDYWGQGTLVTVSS VL: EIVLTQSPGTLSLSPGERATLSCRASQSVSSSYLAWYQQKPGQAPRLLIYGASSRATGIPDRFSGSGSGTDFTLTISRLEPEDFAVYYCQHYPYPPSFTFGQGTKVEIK .
*A* 2.87e+06

*Q* If you can, please state the reported ka (1/Ms) cyBCMA @ 37° C. value of L3.PY/L1.AH/H2.QR: anti-BCMA antibody (antibody, V domains shown) VH: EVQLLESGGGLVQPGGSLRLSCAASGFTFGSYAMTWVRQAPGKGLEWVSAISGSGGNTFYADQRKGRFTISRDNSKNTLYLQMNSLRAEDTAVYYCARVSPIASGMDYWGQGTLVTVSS VL: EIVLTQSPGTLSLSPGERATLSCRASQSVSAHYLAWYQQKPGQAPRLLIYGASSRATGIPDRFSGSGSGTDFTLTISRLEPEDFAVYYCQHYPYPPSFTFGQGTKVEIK .
*A* 2.2e+06

*Q* If you can, please state the reported ka (1/Ms) cyBCMA @ 37° C. value of L3.PY/L1.FF/H2.LT: anti-BCMA antibody (antibody, V domains shown) VH: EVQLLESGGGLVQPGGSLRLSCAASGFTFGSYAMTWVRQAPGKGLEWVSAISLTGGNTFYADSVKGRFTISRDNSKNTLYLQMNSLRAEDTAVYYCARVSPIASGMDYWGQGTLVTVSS VL: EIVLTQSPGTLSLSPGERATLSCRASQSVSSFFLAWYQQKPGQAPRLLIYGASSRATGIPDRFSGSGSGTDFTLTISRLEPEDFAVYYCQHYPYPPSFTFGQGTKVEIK .
*A* 2.19e+06

*Q* If you can, please state the reported ka (1/Ms) cyBCMA @ 37° C. value of L3.PY/H3.AE: anti-BCMA antibody (antibody, V domains shown) VH: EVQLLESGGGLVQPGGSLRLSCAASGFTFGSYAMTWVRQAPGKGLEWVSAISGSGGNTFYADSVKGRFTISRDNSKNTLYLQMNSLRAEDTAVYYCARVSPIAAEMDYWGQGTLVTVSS VL: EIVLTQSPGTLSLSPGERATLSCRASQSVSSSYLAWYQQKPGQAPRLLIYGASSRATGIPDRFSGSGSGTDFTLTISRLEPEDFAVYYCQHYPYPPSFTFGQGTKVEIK .
*A* 2.82e+06
